Tested on: HepG2 cells
experimental_details: Intracellular ATP content (cell viability) assay
Type: cell-based, human
stated_conditions: Homo sapiens, HepG2; 5 mM glucose; 40 h treatment; mean±SD of three experiments; read-out: ATP (HepG2, glucose) IC50
pIC50: −log10 of the molar value.
readout_kind: pIC50

compound: Cc1cc(Cc2cc(C)cc(C(C)(C)C)c2O)c(O)c(C(C)(C)C)c1
readout_kind: pIC50
value_observed: 4.47

compound: COc1cc2c(cc1OC)-c1cc3ccc(OC)c(OC)c3c[n+]1CC2 [Palmatine chloride hydrate]
readout_kind: pIC50
value_observed: 4.72

compound: NNc1nc(-c2ccc(N)cc2)cs1 [2-Hydrazino-4-(4-aminophenyl) thiazole]
readout_kind: pIC50
value_observed: 4.23

compound: CCc1cc(Cc2cc(CC)cc(C(C)(C)C)c2O)c(O)c(C(C)(C)C)c1
readout_kind: pIC50
value_observed: 4.67

compound: NNc1nc(-c2ccc([N+](=O)[O-])cc2)cs1 [2-Hydrazino-4-(4-nitrophenyl)thiazole]
readout_kind: pIC50
value_observed: 4.32

* * *

Tested on: rat primary hepatocytes
experimental_details: MMP assay in rat primary hepatocytes
stated_conditions: read-out: MMP assays IC50 (µM) Rat Hepatocytes; rat hepatocytes; mean ± SD of three experiments
readout_kind: IC50 (µM)

compound: CCCCCCCCOc1ccc(C(=O)O)cc1
readout_kind: IC50
value_observed: 48
//
compound: CCn1c2ccccc2c2cc(N)ccc21.Cl [3-Amino-9-ethylcarbazole hydrochloride]
readout_kind: IC50
value_observed: 56.2
//
compound: O=C=Nc1cccc(C(F)(F)F)c1
readout_kind: IC50
value_observed: 11.5
//
compound: CN[C@H]1CC[C@@H](c2ccc(Cl)c(Cl)c2)c2ccc(S(N)(=O)=O)cc21
readout_kind: IC50
value_observed: 35.7
//
compound: CCCCCCCCCCCCCC[P+](CCCCCC)(CCCCCC)CCCCCC.N#C[N-]C#N
readout_kind: IC50
value_observed: 31
//
compound: COc1cc(Nc2c(C#N)cnc3cc(OCCCN4CCN(C)CC4)c(OC)cc23)c(Cl)cc1Cl
readout_kind: IC50
value_observed: 16.6
//
compound: Cc1cc2c(cc1C(F)(F)F)N(C(=O)Nc1ccc(Oc3cccnc3C)nc1)CC2.Cl
readout_kind: IC50
value_observed: 6.15
//
compound: CCCCCCCC[n+]1ccn(C)c1.F[B-](F)(F)F [1-Methyl-3-octylimidazolium tetrafluoroborate]
readout_kind: IC50
value_observed: 43.4

* * *

System: Caenorhabditis elegans (Bristol N2)
experimental_details: C. elegans larval development and growth assay
stated_conditions: 0.5–100μM

compound: CO[C@H]1/C=C/O[C@@]2(C)Oc3c(C)c(O)c4c(O)c(c(/C=N/N5CCN(C6CCCC6)CC5)c(O)c4c3C2=O)NC(=O)/C(C)=C\C=C\[C@H](C)[C@H](O)[C@@H](C)[C@@H](O)[C@@H](C)[C@H](OC(C)=O)[C@@H]1C [Rifapentine, reference compound]
measured_target: Caenorhabditis elegans (Bristol N2)
effect on larval growth (in words): did not affect growth
--
compound: O=C(Nc1ccccc1)Nc1ccccc1 [Diphenylurea]
measured_target: Caenorhabditis elegans (Bristol N2)
effect on larval growth (in words): did not affect growth

* * *

Tested on: Caenorhabditis elegans (Bristol N2)
experimental_details: C. elegans larval development and growth assay
stated_conditions: 100 µM
The following molecules are listed with their measured EXT: mean difference in nematode size relative to plate controls values.
readout_kind: EXT: mean difference in nematode size relative to plate controls

molecule: O=C(Nc1ccccc1)Nc1ccccc1 [Diphenylurea]
value_observed: 0.0228
//
molecule: CCc1cc(Cc2cc(CC)cc(C(C)(C)C)c2O)c(O)c(C(C)(C)C)c1
value_observed: 1.387
//
molecule: O=C1CCC(N2C(=O)c3ccccc3C2=O)C(=O)N1 (centres unmarked) [Thalidomide]
value_observed: 0.9456
//
molecule: NNc1nc(-c2ccc(N)cc2)cs1 [2-Hydrazino-4-(4-aminophenyl) thiazole]
value_observed: 0.3701
//
molecule: O=C(Nc1ccc(Cl)cc1)Nc1ccc(Cl)c(Cl)c1 [Triclocarban]
value_observed: 0.6913
